Answer each item with its documented cytotoxicity at 10 µM.
ASSAY INFO: Toxicity liver stage against HepG2, at 10uM
Assay type: cell-based
Parameters: test concentration 10 uM, cell line HepG2-A16-CD81EGFP
MEASUREMENT CONDITIONS: human, HepG2-A16-CD81EGFP cells; read-out: INHIBITION
Response body: numeric value in %, unit text excluded.

Can you look up the measured cytotoxicity at 10 µM of "Cc1nc(C)n(CCNC2CCN(c3ncnc4c(C)csc34)CC2)n1" for me?
4.35

Quick one: cytotoxicity at 10 µM for "CNC(=O)[C@H]1C[C@@H]2CN(S(=O)(=O)c3ccc(C)cc3)C[C@@H]2N1C" ?
-2.19

Given COc1ccccc1C1(O)CCCN(C(=O)c2csc(C(C)=O)c2)C1 (stereo not given) , state its recorded cytotoxicity at 10 µM.
-1.41

Item "CCCN1CCN(C(=O)c2cc3ccccc3cn2)[C@H]2CS(=O)(=O)C[C@H]21" has what recorded cytotoxicity at 10 µM?
1.1

Please report the recorded cytotoxicity at 10 µM for COc1ccc(CN2CC(O)CN(C(=O)OCC(C)(C)C)CC2=O)cc1 (stereo not given) .
2.55

Quick one: cytotoxicity at 10 µM for "CCCOc1c(Cl)cc(C(=O)N2CCOC23CCN(C)CC3)cc1Cl" ?
8.17

What does the data say about its cytotoxicity at 10 µM? Entry: "Cc1cn(CC(=O)NC2CCN(C(C)C)CC2)c2ccccc12"
0.0531

What measured cytotoxicity at 10 µM goes with CNS(=O)(=O)c1cc(C(=O)NC2CCOc3ccccc32)cc(C)c1C (stereo not given) ?
6.82

Which value of cytotoxicity at 10 µM has been reported for "Cc1cc(C)n(-c2ccc(CNCc3cccc(C#N)c3)cn2)n1" in the records?
-10.2

If you can, please state the reported cytotoxicity at 10 µM value of O=C(NCCCn1ccnc1)N1CCCC1c1ccsc1 (stereo not given) .
-6.04
